test description: logP determination (neutral / HCOOH)
condition details: logP (neutral), neutral
Consider the following molecules and their measured logP readings.
Answer with a bare number; do not write a unit.

These recorded examples may help you get a feel for the data.
{"columns": ["smiles record", "logP"],
 "data": [
  ["c1cncc(-n2cc(-c3ccncc3)cn2)c1", 1.24],
  ["COCC(=O)c1cccc(Br)n1", 1.73],
  ["CC1(C)COC(c2cccc(-c3cnn(-c4cccnc4)c3)n2)OC1", 2.55],
  ["c1cncc(-n2cc(-c3cccc(C4=NCCO4)n3)cn2)c1", 1.45]
]}

Consider the record given below.
query: Would you kindly share the measured logP for Cn1cnc(-c2cccc(-c3cnn(-c4cccnc4)c3)n2)n1 ?
result: 1.29

* * *

test description: logP determination (neutral / HCOOH)
condition details: HCOOH, logP (HCOOH)
Mark each entry True if its logP sits below 2, and False for all others.

Some solved cases for reference:
{"columns": ["smiles record", "group"],
 "data": [
  ["CON(C)C(=O)c1cnn(-c2cccnc2)c1", "True"],
  ["FC(F)(F)C(F)(F)c1nccc(-c2cnn(-c3cccnc3)c2)n1", "False"],
  ["COCC(=O)c1cccc(-c2cnn(-c3cccnc3)c2)n1", "True"],
  ["c1cnc(-c2ccn(-c3cnn(-c4cccnc4)c3)n2)nc1", "True"]
]}

query: Is logP of CN(C)/C=C/C(=O)c1cnn(-c2cccnc2)c1 strictly below 2?
result: True

* * *

test description: logP determination (neutral / HCOOH)
condition details: HCOOH (formic acid), logP (HCOOH), HCOOH
Decision: chromatographic logP >= 2 yields Condition met, all other cases yield Condition not met.

Field: example entries. Status: answers known.
{"columns": ["compound", "group"],
 "data": [
  ["O=[N+]([O-])c1cnc(-n2ccc(-c3cnn(-c4cccnc4)c3)n2)nc1 [Example 102]", "Condition not met"],
  ["c1cncc(-n2cc(-c3cccc(C4OCCCO4)n3)cn2)c1 [Example 13]", "Condition not met"],
  ["Fc1cccc(-c2cnn(-c3cccnc3)c2)n1 [Example 105]", "Condition not met"],
  ["FC(F)(F)c1nccc(-c2cnn(-c3cccnc3)c2)n1 [Example 15]", "Condition met"]
]}

query: Has COC(=O)CN(C)c1cccc(-c2cnn(-c3cccnc3)c2)n1 [Example 32] a recorded chromatographic logP greater than or equal to 2?
result: Condition met

* * *

test description: logP determination (neutral / HCOOH)
condition details: HCOOH (formic acid), logP (HCOOH), HCOOH
Label Y when chromatographic logP is at or above 2; otherwise label N.

Recorded results for 3 compounds are shown here.
{"columns": ["compound", "group"],
 "data": [
  ["CN(C)C(=O)c1nc(-c2cnn(-c3cccnc3)c2)cs1", "N"],
  ["Cc1nn(-c2cccnc2)cc1-n1ccc(C(F)(F)F)n1", "Y"],
  ["O=C1CCCCN1c1cccc(-c2cnn(-c3cccnc3)c2)n1", "N"]
]}

query: For this compound, is measured chromatographic logP 2 or higher? FC(F)CNc1cccc(-c2cnn(-c3cccnc3)c2)n1
result: N

query: Is chromatographic logP at least 2? Consider c1cncc(-n2cc(-c3cccc(C4OCCO4)n3)cn2)c1
result: N

query: # check: chromatographic logP of c1cncc(-n2cc(-c3cccc(C4OCC5(CCC5)O4)n3)cn2)c1 (centres unmarked) is greater than or equal to 2
result: Y

query: Kindly determine if chromatographic logP recorded for Brc1cccc(-c2ncccn2)n1 is above or exactly 2.
result: N

query: For this compound, is measured chromatographic logP 2 or higher? Cc1cnn(-c2cccc(-c3cnn(-c4cccnc4)c3)n2)c1
result: Y

query: Answer whether chromatographic logP of c1cncc(-n2cc(-c3cccc(-n4ccnn4)n3)cn2)c1 is greater than or equal to 2.
result: N

query: Item c1cnc(-n2ccc(-c3cnn(-c4cccnc4)c3)n2)nc1 with chromatographic logP of 2 or above?
result: N

query: Decide: chromatographic logP of FC(F)(F)c1cccc(-c2cnn(-c3cncnc3)c2)n1 >= 2?
result: Y

query: Assess whether reported chromatographic logP for FC(F)(F)c1cccc(-c2cnn(-c3cccnc3)c2)n1 sits at 2 or higher.
result: Y

query: chromatographic logP >= 2 for O=C(NCC(F)(F)F)c1cnc(-c2cnn(-c3cccnc3)c2)cc1C(F)(F)F ?
result: Y

query: Does c1cncc(-n2cc(-c3cccc(C4=NOCCO4)n3)cn2)c1 have a reported chromatographic logP of at least 2?
result: N

query: Hi team, for CC(=O)NC(NO)c1cccc(-c2cnn(-c3cccnc3)c2)n1 (centres unmarked) , is the recorded chromatographic logP at or above 2?
result: N

query: I'd appreciate it if you could say whether c1cc(-c2cnn(-c3cncnc3)c2)nc(C2OCCCO2)c1 has chromatographic logP at least equal to 2.
result: N

query: Given c1ccc(-c2cnn(-c3cccnc3)c2)nc1 , state whether its chromatographic logP is at least 2.
result: N

query: Say whether CC1(C)OB(c2cnn(-c3cncnc3)c2)OC1(C)C shows chromatographic logP of 2 or more.
result: Y

query: Is chromatographic logP at least 2? Consider O=C(NCC(F)(F)F)c1cccc(-c2cnn(-c3cccnc3)c2)n1
result: Y

query: Hi team, for COC(=N)c1cccc(-c2cnn(-c3cccnc3)c2)n1 , is the recorded chromatographic logP at or above 2?
result: N

* * *

test description: logP determination (neutral / HCOOH)
condition details: logP (neutral), neutral
measured parameter: logP
Keep it simple and answer with nothing but the number.

Example entries and their recorded answers appear below.
{"columns": ["smiles record", "logP"],
 "data": [
  ["CC(=O)c1cccc(-c2cnn(-c3cccnc3)c2)n1", 1.94],
  ["FC(F)(F)c1cccc(-c2cnn(-c3cncnc3)c2)n1", 2.38],
  ["CC(C)C(F)(F)c1cccc(-c2cnn(-c3cccnc3)c2)n1", 3.22],
  ["CC(C)C(=O)c1cccc(-c2cnn(-c3cccnc3)c2)n1", 2.84]
]}

query: Returns the measured logP for the input molecule. Input: c1cncc(-n2cc(-c3cccc(-c4nnn[nH]4)n3)cn2)c1
result: 0.32

query: Query: logP; subject: Nc1cccc(-c2cnn(-c3cncc(F)c3)c2)n1
result: 1.59

query: # get_value(readout='logP', item= N#CCNC(=O)c1ccc(-c2cnn(-c3cccnc3)c2)nc1 )
result: 1.2

query: # get_value(readout='logP', item= CN1CCOC(c2cccc(-c3cnn(-c4cccnc4)c3)n2)=N1 )
result: 1.68

query: Quick one: logP of NC(=S)c1cccc(-c2cnn(-c3cccnc3)c2)n1 ?
result: 1.77

query: Consider the molecule O=C(Nc1cccc(-c2cnn(-c3cccnc3)c2)n1)C(F)(F)F and give its measured logP.
result: 2.28

* * *

test description: physchem
measured parameter: chromatographic logP
API doc: respond with a numeric literal and nothing else, no unit.

query: // query chromatographic logP value for entry c1cnc(-c2cccc(-c3cnn(-c4cccnc4)c3)n2)nc1
result: 1.36

* * *

test description: logP determination (neutral / HCOOH)
condition details: HCOOH (formic acid), logP (HCOOH), HCOOH
Param label: returns yes (1) when chromatographic logP < 2, returns no (0) otherwise, including exact equality.

{"columns": ["smiles record", "group"],
 "data": [
  ["Cc1nc(-c2cccc(-c3cnn(-c4cccnc4)c3)n2)no1", "yes (1)"],
  ["Nc1cccc(-c2cnn(-c3cccnc3)c2)n1", "yes (1)"],
  ["COC(OC)c1cccc(-c2cnn(-c3cccnc3)c2)n1", "yes (1)"],
  ["CC(=O)c1cnn(-c2cccnc2)c1", "yes (1)"],
  ["FC(F)(F)c1nc(-c2cccc(-c3cnn(-c4cccnc4)c3)n2)no1", "no (0)"],
  ["CN1CCN(C(=O)c2cccc(-c3cnn(-c4cccnc4)c3)n2)CC1", "yes (1)"],
  ["Cc1ccn(-c2cccc(-c3cnn(-c4cccnc4)c3)n2)n1", "no (0)"]
]}

Now look at this one.
query: chromatographic logP under 2? Item: Fc1cnc(-n2ccc(-c3cnn(-c4cccnc4)c3)n2)nc1
result: yes (1)

* * *

chromatographic logP overview
test description: logP determination (neutral / HCOOH)
condition details: HCOOH (formic acid), logP (HCOOH), HCOOH
// no unit string in output, number only

The following compounds have reported results that may help.
{"columns": ["compound", "chromatographic logP"],
 "data": [
  ["FC(F)c1cccc(-c2cnn(-c3cccnc3)c2)n1 [Example 63]", 2.02],
  ["CN1CCOC(c2cccc(-c3cnn(-c4cccnc4)c3)n2)=N1 [Example 58]", 1.54],
  ["FC(F)(F)c1ccc(-n2ccc(-c3cnn(-c4cccnc4)c3)n2)nc1 [Example 43]", 3.22],
  ["Fc1cncc(-n2cc(-c3cccc(C4OCCCO4)n3)cn2)c1 [Example 73]", 2.12],
  ["CC1(C)COC(c2cccc(-c3cnn(-c4cccnc4)c3)n2)OC1 [Example 104]", 2.44]
]}

query: chromatographic logP for FC(F)(F)c1ccnc(-n2ccc(-c3cnn(-c4cccnc4)c3)n2)n1 [Example 8] ?
result: 2.15

query: Consider the compound Fc1cncc(-n2cc(-c3cccc(C(F)(F)F)n3)cn2)c1 [Example 59] and give its measured chromatographic logP.
result: 3.1

query: Any idea what its chromatographic logP is? The compound is FC(F)(F)c1ccnc(-c2cnn(-c3cccnc3)c2)n1 [Example 35]
result: 2.23
